B1: TRAF3IP2 (parent)
chain: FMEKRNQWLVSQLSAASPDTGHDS

- Variants of: B1
- test_details: protein stability index of a GFP-peptide fusion (GPS, HEK-293T) (PSI 1-6); higher = more stable;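 also: lentivirally expressed fusions sorted by FACS into six bins by GFP to DsRed ratio, PSI derived from sequencing read proportions per bin multiplied by bin number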
- measurement_setup: c terminus: a fixed tail appended
Outcome label depends on protein stability index relative to 3: at/above gives Condition met, below gives Condition not met.

hey, is protein stability index for this one >= 3? FMEKRNQWLVRQLSAASPDTGHDS
Condition met

New cases:
hey, is protein stability index for this one >= 3? FMEKRNQWLVSQVSAASPDTGHDS
Condition not met

Then what about the variant FMEKRNQWLVSQLSAASPDPGHDS ?
Condition not met

Then what about the variant FMEKRNQWSVSQLSAASPDTGHDS ?
Condition met

Then what about the variant FMEKRNQWLVGQLSAASPDTGHDS ?
Condition met

Then what about the variant FMEKRNQWLVSQLSAYSPDTGHDS ?
Condition not met
